- procedureText: Natriuretic polypeptide receptor (hNpr1) antagonism - Pilot counterscreen GloSensor control cell line (AID 1347045)
- reportedConditions: HEK293 cGMP GloSensor cells, SNP-stimulated luminescence, 20 min; series mostly up to 38.3 µM
Records with an inconclusive call do not appear. Active and inactive are the calls of the source. Calls come from the whole dose curve.
Choose one outcome from this list and give only that: active, inactive

Recorded results for 6 compounds are shown here.
compound	assignedLabel
CCCn1c(=O)c2[nH]c(-c3ccc(OCC(=O)NCCN)cc3)nc2n(CCC)c1=O	inactive
CO/N=C(\C(=O)N[C@@H]1C(=O)N2C(C(=O)O)=C(COC(C)=O)CS[C@H]12)c1csc(N)n1	inactive
O=C(Nc1cccc(C(=O)Nc2ccc(S(=O)(=O)O)c3cc(S(=O)(=O)O)cc(S(=O)(=O)O)c23)c1)Nc1cccc(C(=O)Nc2ccc(S(=O)(=O)O)c3cc(S(=O)(=O)O)cc(S(=O)(=O)O)c23)c1	inactive
Cc1ccccc1CNc1ncnc2c1ncn2C1OC(CO)C(O)C1O (configuration not stated)	inactive
CN1CCC[C@H]1c1cccnc1	inactive
CC1OC1P(=O)(O)O (configuration not stated)	inactive

QUERY: For "O=C(O)c1cc([N+](=O)[O-])ccc1NCCCc1ccccc1" , which call appears in the assay record?
RESULT: inactive

QUERY: What outcome does the record of this test show for "CN(C)c1ccc(/C=C2\C(=O)Nc3ccccc32)cc1" ?
RESULT: active

QUERY: // return assay outcome for NC(=S)c1ccc[n+]([C@@H]2O[C@@H](COP(=O)([O-])OP(=O)(O)OC[C@H]3O[C@@H](n4cnc5c(N)ncnc54)[C@H](OP(=O)(O)O)[C@@H]3O)C(O)C2O)c1 (some centres not stated)
RESULT: inactive

QUERY: Which outcome was assigned to "COc1ccc(/C=C/C(=O)Nc2ccccc2C(=O)O)cc1OC" in this test?
RESULT: active

QUERY: Recorded test call requested for "CCCCC#Cc1nc(NC)c2ncn([C@@H]3O[C@H](CO)[C@@H](O)[C@H]3O)c2n1"
RESULT: inactive

QUERY: Recorded test call requested for "Cc1ccc(S(=O)(=O)/C=C/C#N)cc1"
RESULT: active

QUERY: How did this test come out for "Oc1cc(O)cc(/C=C/c2ccc(O)c(O)c2)c1" ?
RESULT: active

QUERY: Hi, do you know how "CN(C)C(N)=NCCC[C@H](N)C(=O)O" came out in this test?
RESULT: inactive
